- method_notes: Renal clearance in Sprague-Dawley rat at 50 mg/kg, po pretreated with Escherichia coli lipopolysaccharide (Rvb=4.21 +/- 1.81 ml/min/kg)
- Assay type: ADME, organism-based, Kidney
- Parameters: dose 50 mg/kg, route oral
- study_conditions: in vivo, read-out: CL_renal
reported_endpoint: CL renal (mL/min/kg)
Write down the numeric answer in mL/min/kg and omit the unit.

GET /values?readout=CL renal&item= CC[C@H]1OC(=O)[C@H](C)C(=O)[C@H](C)[C@@H](O[C@@H]2O[C@H](C)C[C@H](N(C)C)[C@H]2O)[C@](C)(OC)C[C@@H](C)C(=O)[C@H](C)[C@H]2N(CCCCn3cnc(-c4cccnc4)c3)C(=O)O[C@]12C [TELITHROMYCIN]
3.17

====

- method_notes: Drug absorption in Sprague-Dawley rat gastrointestinal tract at 50 mg/kg, po after 24 hrs pretreated with Escherichia coli lipopolysaccharide (Rvb=5.73 +/- 4.57 %)
- Type: ADME, organism-based
- Parameters: dose 50 mg/kg, route oral
reported_endpoint: percent of dose recovered from gastrointestinal tract at 24 h
Please state the number and follow it with the unit.

GET /values?readout=percent of dose recovered from gastrointestinal tract at 24 h&item= CC[C@H]1OC(=O)[C@H](C)C(=O)[C@H](C)[C@@H](O[C@@H]2O[C@H](C)C[C@H](N(C)C)[C@H]2O)[C@](C)(OC)C[C@@H](C)C(=O)[C@H](C)[C@H]2N(CCCCn3cnc(-c4cccnc4)c3)C(=O)O[C@]12C
9.63%

====

- method_notes: Tmax in Sprague-Dawley rat at 50 mg/kg, po pretreated with Escherichia coli lipopolysaccharide (Rvb=180 min)
- Assay type: ADME, organism-based
- Design: dose 50 mg/kg, route oral
- study_conditions: in vivo
reported_endpoint: Tmax (h)
Write down the numeric answer in h and omit the unit.

GET /values?readout=Tmax&item= CC[C@H]1OC(=O)[C@H](C)C(=O)[C@H](C)[C@@H](O[C@@H]2O[C@H](C)C[C@H](N(C)C)[C@H]2O)[C@](C)(OC)C[C@@H](C)C(=O)[C@H](C)[C@H]2N(CCCCn3cnc(-c4cccnc4)c3)C(=O)O[C@]12C
3

====

- method_notes: Drug excretion in Sprague-Dawley rat urine assessed as unchanged drug at 50 mg/kg, po after 24 hrs pretreated with Escherichia coli lipopolysaccharide (Rvb=4.78 +/- 3.28 %)
- Assay type: ADME, organism-based
- Design: dose 50 mg/kg, route oral
- study_conditions: read-out: Drug uptake
reported_endpoint: dose excreted at 24 h (%)
Write down the numeric answer in % and omit the unit.

GET /values?readout=dose excreted at 24 h&item= CC[C@H]1OC(=O)[C@H](C)C(=O)[C@H](C)[C@@H](O[C@@H]2O[C@H](C)C[C@H](N(C)C)[C@H]2O)[C@](C)(OC)C[C@@H](C)C(=O)[C@H](C)[C@H]2N(CCCCn3cnc(-c4cccnc4)c3)C(=O)O[C@]12C [TELITHROMYCIN]
9.54

====

- method_notes: Renal clearance in Sprague-Dawley rat at 50 mg/kg, iv pretreated with Escherichia coli lipopolysaccharide (Rvb=5.29 +/- 0.643 ml/min/kg)
- Type: ADME, organism-based, Kidney
- Design: dose 50 mg/kg, route intravenous
- study_conditions: in vivo, read-out: CL_renal
reported_endpoint: CL renal (mL/min/kg)
Write down the numeric answer in mL/min/kg and omit the unit.

GET /values?readout=CL renal&item= CC[C@H]1OC(=O)[C@H](C)C(=O)[C@H](C)[C@@H](O[C@@H]2O[C@H](C)C[C@H](N(C)C)[C@H]2O)[C@](C)(OC)C[C@@H](C)C(=O)[C@H](C)[C@H]2N(CCCCn3cnc(-c4cccnc4)c3)C(=O)O[C@]12C
4.27
